I'd be grateful if you could share measured Ratio IC50 for these entries.
organism: Homo sapiens; test: Ratio of IC50 for human COX1 to IC50 for human COX2 in human whole blood; type: tissue-based

Reference set, count: 2
NS(=O)(=O)c1ccc(-c2nc(NCc3cc4ccccc4s3)cc(C(F)(F)F)n2)cc1
> 71
CS(=O)(=O)c1ccc(-c2nc(NCc3ccc(F)cc3)cc(C(F)(F)F)n2)cc1
1300

Return reported Ratio IC50 values for all items listed beneath this line.
1. CC(C)Nc1cc(NCc2ccccc2)nc(-c2ccc(S(C)(=O)=O)cc2)n1
2. CS(=O)(=O)c1ccc(-c2nc(NCc3ccccn3)cc(C(F)(F)F)n2)cc1
3. Cc1ccccc1CNc1cc(C(F)(F)F)nc(-c2ccc(S(C)(=O)=O)cc2)n1

## Output
> 365
> 1
> 17

====

Assign Ratio IC50 to each entry below.
species on record: Homo sapiens; experiment: Ratio of IC50 for human COX1 to IC50 for human COX2 in human whole blood; assay type: tissue-based

Cc1ccc(CNc2cc(Cl)nc(-c3ccc(S(C)(=O)=O)cc3)n2)cc1
> 2250
CS(=O)(=O)c1ccc(-c2nc(NCC3CCCCC3)cc(C(F)(F)F)n2)cc1
> 68
CS(=O)(=O)c1ccc(-c2nc(NCc3cccnc3)cc(C(F)(F)F)n2)cc1
> 1
CC(Nc1cc(C(F)(F)F)nc(-c2ccc(S(C)(=O)=O)cc2)n1)c1ccccc1 (stereo not given)
74

Working through the 3 compounds below one at a time, give Ratio IC50 for each.
1. NS(=O)(=O)c1ccc(-c2nc(NCc3ccncc3)cc(C(F)(F)F)n2)cc1
2. COc1cc(NCc2cccs2)nc(-c2ccc(S(C)(=O)=O)cc2)n1
3. CS(=O)(=O)c1ccc(-c2nc(NCc3ccc(O)cc3)cc(C(F)(F)F)n2)cc1

## Output
1. > 3
2. > 22000
3. > 158

====

Record form. Attribute: IC50. Fill in for each entry.
molecular target: Prostaglandin G/H synthase 2 (Homo sapiens, UniProt P35354)
Sequence (P35354 whole entry): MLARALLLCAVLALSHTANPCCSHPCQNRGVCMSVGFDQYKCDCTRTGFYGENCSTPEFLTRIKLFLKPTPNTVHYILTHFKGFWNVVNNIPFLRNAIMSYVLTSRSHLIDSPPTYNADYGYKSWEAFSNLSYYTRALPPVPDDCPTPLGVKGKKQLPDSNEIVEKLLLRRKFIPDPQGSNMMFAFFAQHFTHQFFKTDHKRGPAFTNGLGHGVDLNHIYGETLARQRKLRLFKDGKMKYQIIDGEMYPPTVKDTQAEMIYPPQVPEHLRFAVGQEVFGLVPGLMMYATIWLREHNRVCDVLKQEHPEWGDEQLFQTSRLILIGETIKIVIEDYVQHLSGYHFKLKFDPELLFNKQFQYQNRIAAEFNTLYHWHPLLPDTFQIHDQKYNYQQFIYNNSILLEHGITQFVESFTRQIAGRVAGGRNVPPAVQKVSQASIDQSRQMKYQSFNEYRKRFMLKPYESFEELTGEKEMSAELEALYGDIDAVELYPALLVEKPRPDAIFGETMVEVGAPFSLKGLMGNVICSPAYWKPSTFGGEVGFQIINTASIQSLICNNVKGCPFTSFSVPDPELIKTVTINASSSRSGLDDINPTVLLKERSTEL

Worked set:
CS(=O)(=O)c1ccc(-c2nc(NCc3ccccn3)cc(C(F)(F)F)n2)cc1
> 10000 nM
CCN(Cc1ccccc1)c1cc(C(F)(F)F)nc(-c2ccc(S(C)(=O)=O)cc2)n1
> 10000 nM
CS(=O)(=O)c1ccc(-c2nc(NC3CCCC3)cc(C(F)(F)F)n2)cc1
476 nM
CS(=O)(=O)c1ccc(-c2nccc(NCc3ccccc3)n2)cc1
> 10000 nM

Consider now this further compound.
## Input Which IC50 reading was recorded for the compound "CS(=O)(=O)c1ccc(-c2nc(SCc3cccs3)cc(C(F)(F)F)n2)cc1" ?
## Output 4.1 nM

====

pIC50 values recorded for Prostaglandin G/H synthase 2 (Homo sapiens, UniProt P35354)
Answers are plain numbers, as −log10 of the molar value.

CS(=O)(=O)c1ccc(-c2nc(NCc3csc4ccccc34)cc(C(F)(F)F)n2)cc1
5.00
NS(=O)(=O)c1ccc(-c2nc(NCC3CCCCC3)cc(C(F)(F)F)n2)cc1
6.15

Okay, here is my list. What is pIC50 for each of these?
1. NS(=O)(=O)c1ccc(-c2nc(NCc3ccccn3)cc(C(F)(F)F)n2)cc1
2. NS(=O)(=O)c1ccc(-c2nc(NCc3ccccc3)cc(C(F)(F)F)n2)cc1

## Output
1: 5.52; 2: 5.40

Where these numbers come from: ChEMBL document CHEMBL1143107
